- experimental.target: CYP3A4 (Homo sapiens, UniProt P08684)
- Construct: incubations of test compound (1 μM) with human liver microsomes (0.25 mg/mL); from tissue; host or cells: human liver microsomes
- Sequence (P08684 whole entry): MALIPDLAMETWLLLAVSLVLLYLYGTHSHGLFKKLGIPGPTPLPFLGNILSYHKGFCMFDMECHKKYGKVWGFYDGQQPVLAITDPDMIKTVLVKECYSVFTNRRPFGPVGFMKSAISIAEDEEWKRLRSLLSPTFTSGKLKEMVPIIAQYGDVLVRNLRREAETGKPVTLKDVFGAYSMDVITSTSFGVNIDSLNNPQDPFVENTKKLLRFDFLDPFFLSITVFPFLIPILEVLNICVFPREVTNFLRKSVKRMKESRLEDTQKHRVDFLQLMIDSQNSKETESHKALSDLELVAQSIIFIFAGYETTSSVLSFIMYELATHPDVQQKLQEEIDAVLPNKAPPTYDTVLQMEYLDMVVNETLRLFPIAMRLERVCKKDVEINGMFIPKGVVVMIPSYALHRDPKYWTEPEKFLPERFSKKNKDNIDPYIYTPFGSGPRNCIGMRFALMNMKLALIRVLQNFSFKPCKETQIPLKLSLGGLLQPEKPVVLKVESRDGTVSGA
- procedure.details: Metabolic stability in human liver microsomes with/without troleandomycin: percent contribution of CYP3A4
- Format: in vitro ADME
- condition.label: human liver microsomes 0.25 mg/mL, test compound 1 μM, troleandomycin 50 μM; from intrinsic clearance without and with inhibitor
Class TRUE: CYP3A4 contribution at least 40%. Class FALSE: CYP3A4 contribution below 40%.

Answered examples (4):
Would you say FC(F)(F)c1cncc(CNCC[C@@]2(c3ccccn3)CCOC3(CCCC3)C2)c1 [Compound 271] shows CYP3A4 contribution at minimum 40%? TRUE

Would you say Clc1cncc(CNCC[C@@]2(c3ccccn3)CCOC3(CCCC3)C2)c1 [Compound 267] shows CYP3A4 contribution at minimum 40%? TRUE

Would you say FC(F)(F)c1ccnc(CNCC[C@@]2(c3ccccn3)CCOC3(CCCC3)C2)c1 [Compound 277] shows CYP3A4 contribution at minimum 40%? TRUE

Would you say Cc1cccc(CNCC[C@@]2(c3ccccn3)CCOC3(CCCC3)C2)c1 [Compound 246] shows CYP3A4 contribution at minimum 40%? FALSE

Further cases:
Would you say COc1ccsc1CNCC[C@@]1(c2ccccn2)CCOC2(CCCC2)C1 [Compound 140] shows CYP3A4 contribution at minimum 40%? TRUE

Would you say Brc1csc(CNCC[C@@]2(c3ccccn3)CCOC3(CCCC3)C2)c1 [Compound 208] shows CYP3A4 contribution at minimum 40%? FALSE

Would you say Fc1cncc(CNCC[C@@]2(c3ccccn3)CCOC3(CCCC3)C2)c1 [Compound 265] shows CYP3A4 contribution at minimum 40%? TRUE

====

# reported CYP2D6 contribution; entries follow
- experimental.target: CYP2D6 (Homo sapiens, UniProt P10635)
- Construct: incubations of test compound (1 μM) with human liver microsomes (0.25 mg/mL); from tissue; host or cells: human liver microsomes
- Sequence (P10635 whole entry): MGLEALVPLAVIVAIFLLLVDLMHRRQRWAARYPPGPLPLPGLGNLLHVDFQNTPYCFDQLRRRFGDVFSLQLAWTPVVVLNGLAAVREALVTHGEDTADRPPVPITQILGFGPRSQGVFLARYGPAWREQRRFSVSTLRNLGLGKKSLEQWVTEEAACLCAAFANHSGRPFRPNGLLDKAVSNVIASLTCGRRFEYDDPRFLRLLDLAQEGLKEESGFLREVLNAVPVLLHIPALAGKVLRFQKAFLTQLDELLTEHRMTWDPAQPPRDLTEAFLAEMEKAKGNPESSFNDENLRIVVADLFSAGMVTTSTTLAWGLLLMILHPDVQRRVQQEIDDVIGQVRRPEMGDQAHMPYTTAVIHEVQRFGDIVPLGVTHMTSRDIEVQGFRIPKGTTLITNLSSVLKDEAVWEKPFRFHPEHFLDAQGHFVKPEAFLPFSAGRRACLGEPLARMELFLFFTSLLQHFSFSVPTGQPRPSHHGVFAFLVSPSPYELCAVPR
- procedure.details: Metabolic stability in human liver microsomes with/without quinidine: percent contribution of CYP2D6
- Assay type: in vitro ADME
- condition.label: human liver microsomes 0.25 mg/mL, test compound 1 μM, quinidine 1 μM; from intrinsic clearance without and with inhibitor
The reply should be a number in %, with the unit left off.

Known CYP2D6 contribution results, listed for orientation:
Consider the compound `Clc1cncc(CNCC[C@@]2(c3ccccn3)CCOC3(CCCC3)C2)c1` tested on CYP2D6 (Homo sapiens, UniProt P10635); state its CYP2D6 contribution. 8

Consider the compound `FC(F)(F)c1cncc(CNCC[C@@]2(c3ccccn3)CCOC3(CCCC3)C2)c1` tested on CYP2D6 (Homo sapiens, UniProt P10635); state its CYP2D6 contribution. 3

Consider the compound `Brc1csc(CNCC[C@@]2(c3ccccn3)CCOC3(CCCC3)C2)c1` tested on CYP2D6 (Homo sapiens, UniProt P10635); state its CYP2D6 contribution. 3

Consider the compound `Cc1cccc(CNCC[C@@]2(c3ccccn3)CCOC3(CCCC3)C2)c1` tested on CYP2D6 (Homo sapiens, UniProt P10635); state its CYP2D6 contribution. 80

Next:
Consider the compound `COc1ccsc1CNCC[C@@]1(c2ccccn2)CCOC2(CCCC2)C1` tested on CYP2D6 (Homo sapiens, UniProt P10635); state its CYP2D6 contribution. 50

====

- System: mice
- procedure.details: Hot plate assay for antinociception, subcutaneous dosing
- Assay type: in vivo, mouse
- condition.label: 0.5 h; mouse hot plate, SC, re-tested 30 min after drug administration
endpoint.label: ED50 (mg/kg)
The reply should be a number in mg/kg, with the unit left off.

Known ED50 results, listed for orientation:
Quickly give me recorded ED50 for Cc1ccc(CNCC[C@@]2(c3ccc(F)cc3)CCOC3(CCCC3)C2)s1 [Compound 145] 5.9

Quickly give me recorded ED50 for c1ccc(CNCC[C@@]2(c3ccccn3)CCOC3(CCCC3)C2)cc1 [Compound 28] 1.2

Quickly give me recorded ED50 for CN1CC[C@]23c4c5ccc(O)c4O[C@H]2[C@@H](O)C=C[C@H]3[C@H]1C5 [Morphine, reference compound] 3.8

Next:
Quickly give me recorded ED50 for Cc1cccc(CNCC[C@@]2(c3ccc(F)cc3)CCOC3(CCCC3)C2)c1 [Compound 122] 1.1
